Tested on: OVCAR-8 ovarian
Test: NCI-60 one-dose screen, 48 h (100 = growth as untreated, 0 = no growth, -100 = all killed)
Details: 10 µM unless noted
This is part of a sample that, as a whole, favours compounds with a hit. Of some 83,000 tested, about 20% had one in any assay.
recordedMetric: growth (%)
Numbers only, in %.

Check out these entries, answers already filled in.
>  <lineNotation>
COc1ccc(Nc2ncc(Br)c(NCCCNC(=O)C3CCC3)n2)cc1

>  <growth (%)>
28.6

$$$$
>  <lineNotation>
COc1ccc(/C(C)=N/NS(=O)(=O)c2ccc(C)cc2)cc1OC

>  <growth (%)>
104

$$$$
>  <lineNotation>
CCNCCNc1cc(-c2cccc(C(F)(F)F)c2)c(C#N)c2nc3ccccc3n12

>  <growth (%)>
-39.7

$$$$
>  <lineNotation>
COC(=O)c1ccc2oc(NC(=O)c3ccc(N4CCOCC4)c([N+](=O)[O-])c3)nc2c1

>  <growth (%)>
99

$$$$

List the reported growth of each molecule below.
1. CCCCOc1ccc(NC(=O)n2nc(N=NN(C)C)c3ccc(Cl)cc32)cc1
2. COc1cc(-c2ccc(N=Nc3c(O)c(C(=O)Nc4ccccc4OC)cc4ccccc34)c(OC)c2)ccc1N=Nc1c(O)c(C(=O)Nc2ccccc2OC)cc2ccccc12

Result string:
1. 105
2. 99.3

List the reported growth of each molecule below.
1. O=C(Oc1ccc[nH]c1=O)c1cc([N+](=O)[O-])cc([N+](=O)[O-])c1
2. CCCN1CCN(c2ccc3nc(-c4ccc5nc(-c6ccc(OCC)c(OCC)c6)[nH]c5c4)[nH]c3c2)CC1
3. C=C(Cl)COC(=O)C(C)(C)O

Result string:
[93.6, -11, 98.7]

---

Tested on: UO-31 renal
Test: NCI-60 one-dose screen, 48 h (100 = growth as untreated, 0 = no growth, -100 = all killed)
Settings: 10 µM unless noted
Method: Growth inhibition of the UO-31 human tumor cell line is measured as a screen for anti-cancer activity. Cells are grown in 96 well plates and exposed to the test compound for 48 hours. Compounds are tested at a single concentration, which is 10^-5 M for most compounds. The reported endpoint is percent growth (GI% or GIPRCNT), where numbers from 0 - 100% represent growth inhibition, and numbers from -100% - 0 represent cell death. For example, a value of 40 represents 60% growth inhibition. […]
About 83,000 compounds went through this panel and 20% of them were active in at least one assay; those are over-represented in the sample as a whole.
Threshold 40%: growth strictly smaller gives T, otherwise F.

>  <compound>
CO/C(=C1/NC(=O)C(Cc2ccc(O)c(Br)c2)N(C)C(=O)C(C)NC(=O)CCC/C=C(\C)CCC(C)OC1=O)c1ccccc1 (centres undefined)

>  <classLabel>
T

$$$$
>  <compound>
CCCCCCCCN(CCCCCCCC)C(=N)c1ccnc2ccccc12

>  <classLabel>
T

$$$$
>  <compound>
COC1(CC[C@@H](C)COC2OC(CO)C(O)C(O)C2O)O[C@H]2C[C@H]3[C@@H]4CC=C5C[C@@H](OC6OC(CO)C(OC7OC(C)C(O)C(O)C7O)C(O)C6OC6OC(C)C(O)C(O)C6O)CC[C@]5(C)[C@H]4CC[C@]3(C)[C@H]2[C@@H]1C (some centres undefined)

>  <classLabel>
T

$$$$
>  <compound>
C=C1C(=O)O[C@H]2[C@H]1CC/C(COC(=O)/C=C\C(=O)NCc1ccc(Cn3c(=O)sn(-c4ccc(OC)cc4)c3=O)cc1)=C\CC[C@@]1(C)O[C@@H]21

>  <classLabel>
T

$$$$
>  <compound>
COc1ccc(/C=C2\COc3ccc(O)cc3C2=O)cc1OC

>  <classLabel>
F

$$$$
>  <compound>
CC1=NN(c2cccc(Cl)c2)C(=O)/C1=C\c1cn(CC(O)CN2CCCCC2)c2ccccc12 (centres undefined)

>  <classLabel>
F

$$$$

Query string: Hello, I'm reviewing records and need to know if growth of COc1cccc(CCC2CCCN(c3cc(C)nc(N)n3)C2)c1 (centres undefined) is below 40%. Could you check?
Result string: T

Query string: Hello, I'm reviewing records and need to know if growth of "Cc1nc2ccccc2c(/C=C/c2ccc(Cl)cc2)c1C(=O)/C=C/c1ccc(Cl)cc1" is below 40%. Could you check?
Result string: T

Query string: Hello, I'm reviewing records and need to know if growth of "CC(C)n1nc(C#Cc2cccc3cc(-c4cccc(C(F)(F)F)c4)ncc23)c2c(N)ncnc21" is below 40%. Could you check?
Result string: F

Query string: Hello, I'm reviewing records and need to know if growth of "C[C@@H]1C(=O)N(C[C@H](Cc2ccccc2)NC(=O)OCc2ccccc2)[C@]1(Cc1ccccc1)C(=O)OC(C)(C)C" is below 40%. Could you check?
Result string: F

Query string: Hello, I'm reviewing records and need to know if growth of "COc1ccc(CN2C(=O)/C(=C\c3cc(OC)c(OC)c(OC)c3)c3ccccc32)cc1" is below 40%. Could you check?
Result string: T

Query string: Hello, I'm reviewing records and need to know if growth of "c1ccc2c(c1)nc(-n1ccnc1)c1nc3ccccc3n12" is below 40%. Could you check?
Result string: F

Query string: Hello, I'm reviewing records and need to know if growth of CSc1nc(N)c(CNC(C)c2ccccc2)c(=O)n1C (centres undefined) is below 40%. Could you check?
Result string: F

Query string: Hello, I'm reviewing records and need to know if growth of "CCc1nc2ccccc2[nH]1" is below 40%. Could you check?
Result string: F

Query string: Hello, I'm reviewing records and need to know if growth of "Cc1ccc(/C=C(\C#N)n2nnc3cc(Cl)c(Cl)cc32)cc1" is below 40%. Could you check?
Result string: T

Query string: Hello, I'm reviewing records and need to know if growth of "CN(CCCCCCCCNc1ccnc2ccccc12)Cc1ccc(-c2ccc(-c3ccc(C#N)cc3)s2)cc1" is below 40%. Could you check?
Result string: T

---

Tested on: KM12 colon
Assay: NCI-60 one-dose screen, 48 h
Conditions: 10 µM unless noted
The panel holds about 83,000 compounds, 20% with a hit somewhere; the sample as a whole holds those more often. Calls of active or inactive are those of the source. The calls were made as follows: active = growth percent below 10; inactive = the rest.
Log the outcome using a class from active, inactive

Take a look at these entries with their results.
>  <compound>
COC(=O)/C(=C\c1ccc(OC)cc1)C(=O)N1c2ccccc2Sc2ccccc21

>  <classLabel>
inactive

$$$$
>  <compound>
COc1ccc(/C(C)=C(\c2ccc(Cl)cc2)c2ccc(OCCN3CCCCC3)cc2)cc1F

>  <classLabel>
inactive

$$$$
>  <compound>
CCCCN1CCN(c2ccc3nc(-c4ccc5nc(-c6ccc(OCC)c(OCC)c6)[nH]c5c4)[nH]c3c2)CC1

>  <classLabel>
active

$$$$
>  <compound>
CC(=O)Nc1ccc(C(=O)/C=C/c2ccccc2)cc1

>  <classLabel>
inactive

$$$$

Query string: Any idea what this test logged for "CS(=O)(=O)c1ccc(-c2nc3cc(Cl)ccc3n2CC(=O)N/N=C/c2ccc(Cl)cc2)cc1" ?
Result string: inactive

Query string: Any idea what this test logged for "CCCCCCCC/C=C\CCCCCCCC(=O)Oc1cccc2cccnc12" ?
Result string: inactive

Query string: Any idea what this test logged for "CCCCCCCSc1ccc(C(=O)O)cc1" ?
Result string: inactive

Query string: Any idea what this test logged for "Cc1ccccc1NC(=O)CN(C)C" ?
Result string: inactive

Query string: Any idea what this test logged for "CCCCNCC(=O)Nc1ccc(C(=O)OCC)cc1" ?
Result string: inactive

Query string: Any idea what this test logged for "C[C@@H]1C(=O)N(C[C@H](Cc2ccccc2)N(Cc2ccccc2)Cc2ccccc2)[C@]1(Cc1ccccc1)C(=O)OC(C)(C)C" ?
Result string: inactive

Query string: Any idea what this test logged for "Cc1nc(Nc2ccc(NC(=S)Nc3ccccc3)cc2)nc2nc(Nc3cccc(Cl)c3)[nH]c(=O)c12" ?
Result string: inactive

---

Test system: OVCAR-3 ovarian
Assay: NCI-60 one-dose screen, 48 h (100 = growth as untreated, 0 = no growth, -100 = all killed)
Conditions: 10 µM unless noted
Compounds without any hit were thinned out: in the full panel of roughly 83,000, 20% have a hit.
Threshold -50%: growth strictly smaller gives true (1), otherwise false (0).

Take a look at these entries with their results.
>  <compound>
O=C(O)c1ccc(CO)o1

>  <classLabel>
false (0)

$$$$
>  <compound>
CCNCCNc1cc(-c2ccc(C(F)(F)F)cc2)c(C#N)c2nc3cc(Cl)c(Cl)cc3n12

>  <classLabel>
true (1)

$$$$

Query string: Hello, I'm reviewing records and need to know if growth of "NC(=S)N/N=C/C(=O)O" is below -50%. Could you check?
Result string: false (0)

Query string: Hello, I'm reviewing records and need to know if growth of "CC(=O)c1cc2c(o1)C(=O)c1ccccc1C2=O" is below -50%. Could you check?
Result string: true (1)

Query string: Hello, I'm reviewing records and need to know if growth of "COc1ccc(/C=C(\C#N)n2nnc3ccccc32)cc1" is below -50%. Could you check?
Result string: true (1)

Query string: Hello, I'm reviewing records and need to know if growth of "C=CCOc1cccc(/C=C2\SC(=Nc3ccc(O)cc3)NC2=O)c1" is below -50%. Could you check?
Result string: false (0)

Query string: Hello, I'm reviewing records and need to know if growth of CCN(CC)CCCC(C)NCc1ccccc1 (stereo unspecified) is below -50%. Could you check?
Result string: false (0)

Query string: Hello, I'm reviewing records and need to know if growth of "CN(CCCCCCCCNc1ccnc2ccccc12)Cc1ccc(-c2ccc(-c3ccc(C#N)cc3)s2)cc1" is below -50%. Could you check?
Result string: true (1)

Query string: Hello, I'm reviewing records and need to know if growth of "Clc1ccc(-c2nc(NCCc3ccccc3)nc3c(NCCc4ccccc4)cnn23)cc1" is below -50%. Could you check?
Result string: false (0)

Query string: Hello, I'm reviewing records and need to know if growth of O=C(c1ccccc1)c1ccc(N2C(=O)C3C4c5ccccc5C(/C=C/C(=O)c5ccccn5)(c5ccccc54)C3C2=O)cc1 (stereo unspecified) is below -50%. Could you check?
Result string: true (1)

Query string: Hello, I'm reviewing records and need to know if growth of "Cn1ccnc1C(=O)/C=C/c1ccc(C(=O)Nc2ccc(S(F)(F)(F)(F)F)cc2)cc1" is below -50%. Could you check?
Result string: false (0)

This collection of values is drawn from PubChem BioAssay (NCI).
